Reference source for all entries: paper PMC12592502

# TARGET_OF_ASSAY: PBP3 (Escherichia coli, UniProt P0AD68)
# Construct: using bacterial membranes as the source of PBPs; endogenous in cells; host or cells: E. coli MC4100 membrane preparation
# Sequence (P0AD68 whole entry): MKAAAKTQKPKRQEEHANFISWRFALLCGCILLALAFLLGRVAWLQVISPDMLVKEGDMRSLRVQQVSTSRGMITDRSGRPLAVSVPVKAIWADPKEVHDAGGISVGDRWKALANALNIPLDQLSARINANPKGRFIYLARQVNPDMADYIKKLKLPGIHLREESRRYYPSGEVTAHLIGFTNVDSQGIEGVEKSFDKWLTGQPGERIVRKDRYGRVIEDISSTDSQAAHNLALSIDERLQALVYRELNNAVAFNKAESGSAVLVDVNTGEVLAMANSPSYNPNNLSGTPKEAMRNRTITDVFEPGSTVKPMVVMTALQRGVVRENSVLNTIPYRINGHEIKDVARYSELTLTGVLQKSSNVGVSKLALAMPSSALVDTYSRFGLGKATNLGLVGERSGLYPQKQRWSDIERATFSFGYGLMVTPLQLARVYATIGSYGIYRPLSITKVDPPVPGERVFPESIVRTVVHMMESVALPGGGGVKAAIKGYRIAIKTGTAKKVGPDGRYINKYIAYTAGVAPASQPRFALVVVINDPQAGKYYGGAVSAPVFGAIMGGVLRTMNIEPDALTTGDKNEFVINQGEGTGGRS
# TEST_NAME: Membrane PBP binding assay, competition with Bocillin FL
# Design: species or system E. coli MC4100
# PARTICULARS: E. coli MC4100 membranes; read-out: IC50 PBP3
MEASUREMENT_KIND: pIC50
One number for each entry, as −log10 of the molar value.

The examples below pair each entry with its known result.
# query: pIC50 of entry O=C(CN(CCCCNC(=O)c1cccc(O)c1O)C(=O)c1cccc(O)c1O)NC(C(=O)NC1C(=O)N2C(C(=O)O)=C(Cl)CCC12)c1ccccc1 (stereo not shown)
7.12

# query: pIC50 of entry CC1(C)SC2C(NC(=O)C(NC(=O)CN(CCCCNC(=O)c3cccc(O)c3O)C(=O)c3cccc(O)c3O)c3ccccc3)C(=O)N2C1C(=O)O (stereo not shown)
7.04

# query: pIC50 of entry CC1(C)S[C@@H]2[C@H](NC(=O)[C@H](N)c3ccccc3)C(=O)N2[C@H]1C(=O)O [AMP, ampicillin, reference compound]
5.72

Let us examine a further case.
# query: pIC50 of entry N[C@@H](C(=O)N[C@@H]1C(=O)N2C(C(=O)O)=C(Cl)CC[C@H]12)c1ccccc1 [LOR, loracarbef, reference compound]
4.83
